assay: Cytotoxicity against mouse Kp02 cells after 48 hrs by MTT assay; type: functional, cell-based
propertyName: EC50 (µM)
Give just the number in µM; leave the unit off.

Please look up its EC50: COc1cc2c(cc1OC)CN(CCCCn1ccc3ccccc31)CC2
49

Using the record for c1ccc2c(c1)ccn2CCCCN1CCN(C2CCCCC2)CC1 , report its EC50.
70

====

test system: MIA PaCa-2; assay: Cytotoxicity against human MIAPaCa2 cells after 48 hrs by MTT assay; assay type: functional, cell-based; details: MIA PaCa-2, 48 h
Please provide measured pEC50 for the entries that follow.
Keep in mind that pEC50 stands for -log10 of concentration in molar terms.

Please tell me: pEC50 of c1ccc2c(c1)ccn2CCCCN1CCN(C2CCCCC2)CC1 , system MIA PaCa-2?
4.10

Lab note: need pEC50 for COc1cc2c(cc1OC)CN(CCCCn1ccc3ccccc31)CC2 on MIA PaCa-2, anyone have it?
4.40

Value source: ChEMBL document CHEMBL4251616
